Target: T1, LAG-3-hFc protein (human LAG-3 extracellular region with hFc tag) (human, UniProt P18627 23-450)
T1 construct: also called hLAG-3-hFc; LAG-3 protein; not shown: human IgG Fc fragment (hFc) of the pCpC vector
T1 sequence: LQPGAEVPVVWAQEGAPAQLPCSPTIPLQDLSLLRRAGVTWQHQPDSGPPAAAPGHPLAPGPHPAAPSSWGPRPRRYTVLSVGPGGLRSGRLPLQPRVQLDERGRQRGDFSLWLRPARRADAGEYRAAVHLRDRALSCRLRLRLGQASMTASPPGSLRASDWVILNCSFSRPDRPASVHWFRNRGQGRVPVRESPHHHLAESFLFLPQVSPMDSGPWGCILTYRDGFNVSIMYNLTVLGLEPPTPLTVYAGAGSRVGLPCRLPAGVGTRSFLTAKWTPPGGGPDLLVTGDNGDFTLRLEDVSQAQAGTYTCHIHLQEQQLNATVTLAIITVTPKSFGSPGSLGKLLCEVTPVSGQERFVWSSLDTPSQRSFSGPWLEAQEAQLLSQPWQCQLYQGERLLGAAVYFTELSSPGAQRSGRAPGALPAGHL
Assay: FACS, inhibition of LAG-3-hFc binding to MHC II on Raji cells, antibody 2.469 nM
Hi there, I'd appreciate the recorded Inhibition rate (%) for every entry that follows.
Give bare numbers, in %.

405B8H3 mouse-human chimeric antibody (antibody, V domains shown, also called mAb103-405B8H3) VH: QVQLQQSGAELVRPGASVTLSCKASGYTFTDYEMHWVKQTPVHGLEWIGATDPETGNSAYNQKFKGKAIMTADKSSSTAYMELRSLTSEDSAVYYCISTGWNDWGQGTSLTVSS VL: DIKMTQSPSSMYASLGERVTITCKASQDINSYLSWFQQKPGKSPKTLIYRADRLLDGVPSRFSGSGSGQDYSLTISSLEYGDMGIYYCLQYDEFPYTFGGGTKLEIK = 55.8
105F1E10 mouse-human chimeric antibody (antibody, V domains shown, also called mAb009-105F1E10) VH: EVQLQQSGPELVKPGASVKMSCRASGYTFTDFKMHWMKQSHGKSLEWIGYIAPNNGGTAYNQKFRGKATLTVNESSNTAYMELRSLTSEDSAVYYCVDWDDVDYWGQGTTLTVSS VL: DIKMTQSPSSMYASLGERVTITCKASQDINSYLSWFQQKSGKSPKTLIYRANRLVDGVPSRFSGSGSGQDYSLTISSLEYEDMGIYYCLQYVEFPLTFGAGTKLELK = 8.2
409D4E10 mouse-human chimeric antibody (antibody, V domains shown, also called mAb112-409D4E10) VH: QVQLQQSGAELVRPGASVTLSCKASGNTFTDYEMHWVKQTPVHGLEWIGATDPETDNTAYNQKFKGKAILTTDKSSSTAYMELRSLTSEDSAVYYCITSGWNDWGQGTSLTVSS VL: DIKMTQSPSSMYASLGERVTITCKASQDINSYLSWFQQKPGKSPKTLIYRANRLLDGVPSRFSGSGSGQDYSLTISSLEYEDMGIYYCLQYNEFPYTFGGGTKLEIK = 56.7
556F6B8 mouse-human chimeric antibody (antibody, V domains shown, also called mAb123-556F6B8; 556F8B8) VH: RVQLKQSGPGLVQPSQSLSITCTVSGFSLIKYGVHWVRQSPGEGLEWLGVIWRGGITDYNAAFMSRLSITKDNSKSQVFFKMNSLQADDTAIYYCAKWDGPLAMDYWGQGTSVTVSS VL: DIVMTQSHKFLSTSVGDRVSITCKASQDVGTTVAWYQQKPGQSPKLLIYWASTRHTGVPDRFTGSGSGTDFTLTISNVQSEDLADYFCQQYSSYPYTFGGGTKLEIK = 41.5

Then this binder:
The recorded Inhibition rate (%) for 409B11E12 mouse-human chimeric antibody (antibody, V domains shown, also called mAb104-409B11E12) VH: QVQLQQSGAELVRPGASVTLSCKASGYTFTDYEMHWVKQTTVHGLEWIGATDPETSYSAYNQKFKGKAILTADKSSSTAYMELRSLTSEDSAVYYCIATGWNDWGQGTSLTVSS VL: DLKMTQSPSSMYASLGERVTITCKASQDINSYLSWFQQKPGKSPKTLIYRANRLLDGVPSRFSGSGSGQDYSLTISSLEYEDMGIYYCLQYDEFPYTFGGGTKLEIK is 59.2
